- METHOD_DESCRIPTION: total protein half-life in vivo (active degradation + dilution); higher = more stable protein
- CONDITION_DETAILS: E. coli NCM3722 delta-lon; growth: N-lim chemostat; doubling time 6 h
PROPERTY_NAME: total protein half-life in vivo (h)
Lab book: enter the figure in h, no units written.

Query: // lookup total protein half-life in vivo for MASQLTDAFARKFYYLRLSITDVCNFRCTYCLPDGYKPSGVTNKGFLTVDEIRRVTRAFARLGTEKVRLTGGEPSLRRDFTDIIAAVRENDAIRQIAVTTNGYRLERDVASWRDAGLTGINVSVDSLDARQFHAITGQDKFNQVMAGIDAAFEAGFEKVKVNTVLMRDVNHHQLDTFLNWIQHRPIQLRFIELMETGEGSELFRKHHISGQVLRDELLRRGWIHQLRQRSDGPAQVFCHPDYAGEIGLIMPYEKDFCATCNRLRVSSIGKLHLCLFGEGGVNLRDLLEDDTQQQALEARISAALREKKQTHFLHQNNTGITQNLSYIGG
Reply: 1.07
